Listed molecules paired with reported solubility
assay: Solubility of glycerol-containing formulations (post vortexing, 30 min and overnight at 18° C.); assay type: physicochemical; settings: glycerol-containing formulation, 18 °C, aqueous with cosolvent or surfactant or cyclodextrin, compound 2 mg/mL; 30% glycerol; overnight incubation at 18° C.; read-out: Solubility of glycerol-containing formulations after overnight incubation at 18° C., 30%

# molecule, observable, measured_value
data = [
    ("CCN1/C(=C/C(C)=C/c2sc3ccccc3[n+]2CC)Sc2ccccc21", "solubility", "< 2000 µg/mL"),
    ("CCN1/C(=C/C=C/c2oc3ccccc3[n+]2CC)Oc2ccccc21 [JAC-R1, 3′,3′-Diethyloxacarbocyanine iodide]", "solubility", "< 2000 µg/mL"),
]

Now turn to the next molecule.
Query (molecule): CCN1/C(=C/C=C/c2sc3ccccc3[n+]2CC)Sc2ccccc21 [JAC-B1, 3′,3′-Diethylthiacarbocyanine iodide] ; field requested: solubility
< 2000 µg/mL

* * *

experiment: Solubility of glycerol-containing formulations (post vortexing, 30 min and overnight at 18° C.); format: physicochemical; details: glycerol-containing formulation, 18 °C, aqueous with cosolvent or surfactant or cyclodextrin, compound 2 mg/mL; 20% glycerol; overnight incubation at 18° C.; read-out: Solubility of glycerol-containing formulations after overnight incubation at 18° C., 20%
Each entry below carries its recorded solubility.

# compound, solubility
measured = [
    ("CCN1/C(=C/C=C/c2oc3ccccc3[n+]2CC)Oc2ccccc21 [JAC-R1, 3′,3′-Diethyloxacarbocyanine iodide]", "< 2000 µg/mL"),
    ("CCN1/C(=C/C=C/c2sc3ccccc3[n+]2CC)Sc2ccccc21 [JAC-B1, 3′,3′-Diethylthiacarbocyanine iodide]", "< 2000 µg/mL"),
]

The record that follows has no solubility shown yet.
Requested read-out: solubility. Entry: CCN1/C(=C/C(C)=C/c2sc3ccccc3[n+]2CC)Sc2ccccc21
< 2000 µg/mL

* * *

assay: Solubility of glycerol-containing formulations (post vortexing, 30 min and overnight at 18° C.); type: physicochemical; conditions: glycerol-containing formulation, aqueous with cosolvent or surfactant or cyclodextrin, compound 2 mg/mL; 10% glycerol; post vortexing; read-out: Solubility of glycerol-containing formulations post vortexing, 10%
observable: solubility at 30 s

# compound, observable, measured_value
records = [
    ("CCN1/C(=C/C(C)=C/c2sc3ccccc3[n+]2CC)Sc2ccccc21", "solubility at 30 s", "< 2000 µg/mL"),
    ("CCN1/C(=C/C=C/c2sc3ccccc3[n+]2CC)Sc2ccccc21 [JAC-B1, 3′,3′-Diethylthiacarbocyanine iodide]", "solubility at 30 s", "< 2000 µg/mL"),
]

Here is another compound to look at.
Can you look up the measured solubility at 30 s of CCN1/C(=C/C=C/c2oc3ccccc3[n+]2CC)Oc2ccccc21 [JAC-R1, 3′,3′-Diethyloxacarbocyanine iodide] for me?
< 2000 µg/mL

* * *

assay: Solubility of glycerol-containing formulations (post vortexing, 30 min and overnight at 18° C.); assay type: physicochemical; settings: glycerol-containing formulation, 18 °C, aqueous with cosolvent or surfactant or cyclodextrin, compound 2 mg/mL; 40% glycerol; overnight incubation at 18° C.; read-out: Solubility of glycerol-containing formulations after overnight incubation at 18° C., 40%
observable: solubility

# example entries with known answers
# compound, observable, measured_value
rows = [
    ("CCN1/C(=C/C=C/c2sc3ccccc3[n+]2CC)Sc2ccccc21 [JAC-B1, 3′,3′-Diethylthiacarbocyanine iodide]", "solubility", "< 2000 µg/mL"),
    ("CCN1/C(=C/C=C/c2oc3ccccc3[n+]2CC)Oc2ccccc21 [JAC-R1, 3′,3′-Diethyloxacarbocyanine iodide]", "solubility", "< 2000 µg/mL"),
]

Query compound follows.
Reported solubility for CCN1/C(=C/C(C)=C/c2sc3ccccc3[n+]2CC)Sc2ccccc21 [JAC-B2.5] : what is it?
< 2000 µg/mL

Origin of values: patent US20230150960A1
